target: full-length beta-Catenin (Uniprot ID P35222) (Homo sapiens (Human)) (UniProt P35222); test: fluorescence polarization competition; full-length beta-catenin; competitor 5FAM-TCF4(10-53) probe
Sequence (P35222 whole entry): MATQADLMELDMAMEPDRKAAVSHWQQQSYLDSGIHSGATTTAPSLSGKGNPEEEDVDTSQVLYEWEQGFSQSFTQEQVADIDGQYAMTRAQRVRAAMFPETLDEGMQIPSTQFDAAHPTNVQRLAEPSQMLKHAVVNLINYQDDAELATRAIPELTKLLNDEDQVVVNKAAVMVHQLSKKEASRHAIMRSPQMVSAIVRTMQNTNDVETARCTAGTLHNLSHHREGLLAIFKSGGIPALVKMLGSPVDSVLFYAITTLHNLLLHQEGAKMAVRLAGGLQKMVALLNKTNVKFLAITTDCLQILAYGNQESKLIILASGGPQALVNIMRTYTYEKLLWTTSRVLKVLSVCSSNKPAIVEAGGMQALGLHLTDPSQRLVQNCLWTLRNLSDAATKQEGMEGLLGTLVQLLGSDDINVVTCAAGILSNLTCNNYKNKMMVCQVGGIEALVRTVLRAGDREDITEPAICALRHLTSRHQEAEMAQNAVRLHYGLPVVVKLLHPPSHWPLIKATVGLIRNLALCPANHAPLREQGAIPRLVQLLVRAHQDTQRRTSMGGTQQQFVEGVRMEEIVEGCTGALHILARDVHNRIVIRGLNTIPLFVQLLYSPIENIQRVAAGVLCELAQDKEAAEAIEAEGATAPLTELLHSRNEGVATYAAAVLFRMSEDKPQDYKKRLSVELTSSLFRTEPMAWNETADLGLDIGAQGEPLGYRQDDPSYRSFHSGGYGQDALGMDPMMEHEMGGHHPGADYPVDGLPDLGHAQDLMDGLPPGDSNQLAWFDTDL
pEC50: −log10 of the molar value. Starred links: 1 amine or outer side, 2 acyl side, 3 side chain; linkers in the order of their positions; H or OH if unused. Positions of bridges follow the written chain, without caps; N, C: chain ends. Non-standard residues stand in square brackets, D forms with d. Primed or numbered codes have the meaning given here. PyrS2″ = (S)-3-amino-1-((pent-4-en-1-yloxy)carbonyl)pyrrolidine-3-carboxylic acid (stapling residue), C=CCCCOC(=O)N1CC[C@@](N[*:1])(C(=O)[*:2])C1; B5(4) = 2,2-bis(4-pentenyl)glycine = 2-amino-2-(pent-4-en-1-yl)hept-6-enoic acid (stitching residue), C=CCCCC(CCCC=C)(N[*:1])C(=O)[*:2]; 4TriA = (S)-2-amino-3-(1H-1,2,3-triazol-4-yl)propanoic acid, O=C([C@H](Cc1c[nH]nn1)N[*:1])[*:2]; Bta = N[C@@H](Cc1csc2ccccc12)C(=O)O; αAllylPro = C=CC[C@@]1(C(=O)O)CCCN1; tBuAla = CC(C)(C)C[C@H](N)C(=O)O; 3Thi = N[C@@H](Cc1ccsc1)C(=O)O; S8 = C=CCCCCCC[C@](C)(N)C(=O)O
reported-endpoint: pEC50

[1] Ac-[αAllylPro]D[tBuAla][B5(4)]DTAAFL[PyrS2″][3Thi][Bta]Q-NH2 (staple 1-4, 4-11) [I-1167]
[2] Ac-[αAllylPro]D[tBuAla][B5(4)]DDAAFL[S8][3Thi][Bta][4TriA]-NH2 (staple 1-4, 4-11) [I-1193]
[3] Ac-[αAllylPro]D[tBuAla][B5(4)]DTAAFT[PyrS2″][3Thi][Bta]Q-NH2 (staple 1-4, 4-11) [I-1166]
Enquiry: Output the listed items in decreasing order of pEC50. Reply: labels, ordered per the request.
Return: 3, 1, 2
